tested on: xylene-induced ear edema in mice; experiment: Xylene-induced ear edema in mice; type: in vivo, Kunming mice; settings: 50 mg/kg intragastric, xylene-induced ear edema
Parameter: Inhibition of ear swelling (%)

CC(=O)Oc1ccc(/C=C/C(=O)N2C(=O)CN(C)C2=O)cc1	28.24
CN1CC(=O)N(C(=O)C=Cc2ccccc2)C1=O	30.86
CN1CC(=O)N(C(=O)/C=C/c2ccc3c(c2)OCO3)C1=O	26.12
COc1cc(/C=C/C(=O)N2C(=O)CN(C)C2=O)ccc1OC(C)=O	35.10
CN1CC(=O)N(C(=O)/C=C/c2ccco2)C1=O	35.02

====

Measured pIC50 values are reported for all entries that follow.
molecular target: ovine cyclooxygenase-2 (COX-2); assay: In vitro COX inhibition assay (enzyme immunoassay kit), COX-2; conditions: ovine COX-2, enzyme immunoassay kit
Sequence (P35354 18-604): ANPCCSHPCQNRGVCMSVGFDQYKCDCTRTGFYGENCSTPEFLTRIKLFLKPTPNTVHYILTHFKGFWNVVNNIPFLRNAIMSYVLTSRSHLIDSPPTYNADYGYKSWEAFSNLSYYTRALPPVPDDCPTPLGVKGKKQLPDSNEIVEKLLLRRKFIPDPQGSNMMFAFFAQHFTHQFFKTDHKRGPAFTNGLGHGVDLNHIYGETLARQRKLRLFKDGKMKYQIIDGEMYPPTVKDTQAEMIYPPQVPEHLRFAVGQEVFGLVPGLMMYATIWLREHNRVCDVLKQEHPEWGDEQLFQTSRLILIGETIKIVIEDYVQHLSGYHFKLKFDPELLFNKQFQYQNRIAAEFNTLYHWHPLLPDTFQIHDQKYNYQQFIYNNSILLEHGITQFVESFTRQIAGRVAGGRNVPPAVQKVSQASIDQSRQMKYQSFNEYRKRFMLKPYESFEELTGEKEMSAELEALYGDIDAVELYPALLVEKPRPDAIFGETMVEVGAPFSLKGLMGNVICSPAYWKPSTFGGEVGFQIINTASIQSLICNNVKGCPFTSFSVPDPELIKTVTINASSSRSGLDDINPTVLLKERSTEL
pIC50: −log10 of the molar value.
Parameter: pIC50

CC(=O)Oc1ccc(/C=C/C(=O)N2C(=O)CN(C)C2=O)cc1 [Compound 4]	3.90
CN1CC(=O)N(C(=O)/C=C/c2ccco2)C1=O [Compound 2]	3.69
